Origin of the recorded values: ChEMBL document CHEMBL4138146

- Tested on: SNB-75
- PROTOCOL DESCRIPTION: Growth inhibition of human SNB75 cells assessed as cell growth at 10 uM incubated for 48 hrs by sulforhodamine B assay relative to control
- Assay type: functional
- MEASUREMENT CONDITIONS: SNB-75, 48 h, read-out: Activity
MEASUREMENT LABEL: growth at 10 µM (%)
Answers are plain numbers, in %.

Solved entries:
COMPOUND | MEASUREMENT LABEL | MEASUREMENT UNIT | ENDPOINT VALUE
CCCCn1c(=O)c(C2CNC(=O)c3ccccc3N2)cc2ccc(Cl)cc21 (stereo not drawn) | growth at 10 µM | % | 90
CCCCOc1nc2ccc(OC)cc2cc1C1CNC(=O)c2ccccc2N1 (stereo not drawn) | growth at 10 µM | % | 89.5

Turning to the following compound.
# growth at 10 µM lookup, item O=C1CC(c2cc3ccccc3[nH]c2=O)Nc2ccccc21 (stereo not drawn)
90.4
